Origin of values: the SangsterLogP compilation

Assay: method code SF-AS, from PMID: 1438511
Conditions: pH 8.0
reportedMetric: logD
One number for each entry.

Q: What value of logD has been recorded for this entry: c1ccc(OCc2cccc(CN3CCCOC3)c2)cc1
Ans: 2.75

* * *

Test: method code SF-AS, from PMID: 1438511
reportedMetric: logP
Answers are plain numbers.

Q: What value of logP has been recorded for this entry: c1ccc(OCc2cccc(CN3CCCCCC3)c2)cc1
Ans: 2.87
